tested on: human MCF-7 mamma carcinoma cells; test: Effect on cell growth of MCF-7 cells; assay type: cell-based; conditions: Homo sapiens, MCF7; 1 × 10^-5 M; mean of 16 individual results; read-out: T/C (corrected)

Molecule	activity at 10 µM, %
CC/C(=C(\c1ccccc1)c1ccc(OCCN(C)C)cc1)c1ccccc1 [Tam, Tamoxifen, reference compound]	-5.7
Cc1c(-c2ccc(O)cc2)oc2ccc(O)cc12 [Compound 61a]	13.3
CCCc1c(-c2ccc(O)cc2)oc2ccc(O)cc12 [Compound 63a]	-2.1

###

test system: human MCF-7 mamma carcinoma cells; assay: Effect on cell growth of MCF-7 cells; assay type: cell-based; settings: Homo sapiens, MCF7; 1 × 10^-6 M; mean of 16 individual results; read-out: T/C (corrected)
Reported activity at 1 µM by item:

Compound	Assayed system	activity at 1 µM
Oc1ccc(-c2oc3cc(O)ccc3c2CCCCCCN2CCCCC2)cc1 [Compound 68b]	human MCF-7 mamma carcinoma cells	42.9%
Oc1ccc(-c2sc3cc(O)ccc3c2CCCCCCN2CCCCC2)cc1 [Compound 119b]	human MCF-7 mamma carcinoma cells	48.1%
Cc1c(-c2ccc(O)cc2)sc2cc(O)ccc12 [Compound 102b]	human MCF-7 mamma carcinoma cells	133%
CCCc1c(-c2ccc(O)cc2)sc2ccc(O)cc12 [Compound 106a]	human MCF-7 mamma carcinoma cells	35%
CCCc1c(-c2ccc(O)cc2)sc2cc(O)ccc12 [Compound 106b]	human MCF-7 mamma carcinoma cells	69%
CCc1c(-c2ccc(O)cc2)oc2ccc(O)cc12 [Compound 62a]	human MCF-7 mamma carcinoma cells	49%
CCCc1c(-c2ccc(O)cc2)oc2ccc(O)cc12 [Compound 63a]	human MCF-7 mamma carcinoma cells	50.5%
Cc1c(-c2ccc(O)cc2)oc2ccc(O)cc12 [Compound 61a]	human MCF-7 mamma carcinoma cells	78.1%

###

Reported RBA* (relative bonding affinity to the oestrogen receptor) by item:
molecular target: oestrogen receptor (Bos taurus, UniProt P49884); construct: oestrogen receptor of a calf's uterus; from tissue; host or cells: calf uterus; assay: Relative bonding affinity to the oestrogen receptor (competition with 3H-17β-Estradiol); assay type: binding, calf; settings: calves' uteri; in relation to 17β-estradiol = 100
Sequence (P49884 whole entry): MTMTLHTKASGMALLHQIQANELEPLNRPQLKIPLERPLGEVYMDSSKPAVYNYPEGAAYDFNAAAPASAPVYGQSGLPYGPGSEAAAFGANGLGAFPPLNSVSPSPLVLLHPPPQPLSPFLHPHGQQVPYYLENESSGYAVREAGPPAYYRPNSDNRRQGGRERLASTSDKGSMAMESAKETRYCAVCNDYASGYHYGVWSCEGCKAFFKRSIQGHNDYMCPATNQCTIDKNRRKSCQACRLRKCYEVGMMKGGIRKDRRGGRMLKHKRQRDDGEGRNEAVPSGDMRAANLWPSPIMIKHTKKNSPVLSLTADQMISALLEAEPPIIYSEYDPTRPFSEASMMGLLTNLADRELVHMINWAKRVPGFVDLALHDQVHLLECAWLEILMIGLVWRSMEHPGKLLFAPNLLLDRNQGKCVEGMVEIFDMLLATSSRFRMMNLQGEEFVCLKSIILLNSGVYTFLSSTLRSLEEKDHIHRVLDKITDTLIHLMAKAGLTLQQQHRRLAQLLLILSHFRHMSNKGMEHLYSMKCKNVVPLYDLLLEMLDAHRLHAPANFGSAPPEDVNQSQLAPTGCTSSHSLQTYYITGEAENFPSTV
Endpoint: RBA* (relative bonding affinity to the oestrogen receptor)

Compound	Assayed system	Reported measurement
CCc1c(-c2ccc(O)cc2)sc2cc(O)ccc12 [Compound 104b]	oestrogen receptor (Bos taurus, UniProt P49884)	27,6
Cc1c(-c2ccc(O)cc2)oc2cc(O)ccc12 [Compound 61b]	oestrogen receptor (Bos taurus, UniProt P49884)	0,2
Cc1c(-c2ccc(O)cc2)sc2cc(O)ccc12 [Compound 102b]	oestrogen receptor (Bos taurus, UniProt P49884)	9,7
CCCc1c(-c2ccc(O)cc2)oc2cc(O)ccc12 [Compound 63b]	oestrogen receptor (Bos taurus, UniProt P49884)	1,7
CCCc1c(-c2ccc(O)cc2)oc2ccc(O)cc12 [Compound 63a]	oestrogen receptor (Bos taurus, UniProt P49884)	20,0
CCc1c(-c2ccc(O)cc2)sc2ccc(O)cc12 [Compound 104a]	oestrogen receptor (Bos taurus, UniProt P49884)	59,6
CCc1c(-c2ccc(O)cc2)oc2ccc(O)cc12 [Compound 62a]	oestrogen receptor (Bos taurus, UniProt P49884)	15,7
CCCc1c(-c2ccc(O)cc2)sc2ccc(O)cc12 [Compound 106a]	oestrogen receptor (Bos taurus, UniProt P49884)	21,9
Oc1ccc(-c2sc3cc(O)ccc3c2CCCCCCN2CCCCC2)cc1 [Compound 119b]	oestrogen receptor (Bos taurus, UniProt P49884)	7,1
Cc1c(-c2ccc(O)cc2)oc2ccc(O)cc12 [Compound 61a]	oestrogen receptor (Bos taurus, UniProt P49884)	2,0

###

system: uterus of infantile mice; assay: Anti-uterotrophic test (in-vivo test on infantile mice); conditions: 125 μg/animal s.c., simultaneous 0.4 μg oestron/animal/day
Reported anti-uterotrophic test, inhibition by item:
Endpoint: anti-uterotrophic test, inhibition (%)

Compound	Assayed system	Reported measurement
CCc1c(-c2ccc(O)cc2)oc2cc(O)ccc12 [Compound 62b]	uterus of infantile mice	12
Cc1c(-c2ccc(O)cc2)sc2ccc(O)cc12 [Compound 102a]	uterus of infantile mice	42
Cc1c(-c2ccc(O)cc2)sc2cc(O)ccc12 [Compound 102b]	uterus of infantile mice	31
Oc1ccc(-c2oc3ccc(O)cc3c2CCCCCCN2CCCCC2)cc1 [Compound 68a]	uterus of infantile mice	48
CCc1c(-c2ccc(O)cc2)sc2ccc(O)cc12 [Compound 104a]	uterus of infantile mice	30
Oc1ccc(-c2sc3cc(O)ccc3c2CCCCCCN2CCCCC2)cc1 [Compound 119b]	uterus of infantile mice	61
CCc1c(-c2ccc(O)cc2)sc2cc(O)ccc12 [Compound 104b]	uterus of infantile mice	31
CCCc1c(-c2ccc(O)cc2)sc2cc(O)ccc12 [Compound 106b]	uterus of infantile mice	40

###

Target: oestrogen receptor (Bos taurus, UniProt P49884)
Construct: oestrogen receptor of a calf's uterus; from tissue; host or cells: calf uterus
Experiment: Relative bonding affinity to the oestrogen receptor (competition with 3H-17β-Estradiol)
Format: binding, calf
Settings: calves' uteri; in relation to 17β-estradiol = 100
From the text: The test methodology is described in Cancer Treatment Reviews 1984, 11, 147. *Relative bonding affinities to the oestrogen receptor of calves' uteri, in relation to 17β-estradiol = 100
Reported RBA* (relative bonding affinity to the oestrogen receptor) by item:
Endpoint: RBA* (relative bonding affinity to the oestrogen receptor)

Molecule	Reported measurement
Oc1ccc(-c2oc3ccc(O)cc3c2CCCCCCN2CCCCC2)cc1 [Compound 68a]	4,3
Cc1c(-c2ccc(O)cc2)sc2ccc(O)cc12 [Compound 102a]	26,0
CCCCc1c(-c2ccc(O)cc2)oc2ccc(O)cc12 [Compound 64a]	1,6
Oc1ccc(-c2oc3cc(O)ccc3c2CCCCCCN2CCCCC2)cc1 [Compound 68b]	5,4
CCc1c(-c2ccc(O)cc2)oc2cc(O)ccc12 [Compound 62b]	0,6
CCCc1c(-c2ccc(O)cc2)sc2cc(O)ccc12 [Compound 106b]	25,1
CCCCc1c(-c2ccc(O)cc2)oc2cc(O)ccc12 [Compound 64b]	0,6

###

system: human MCF-7 mamma carcinoma cells; assay: Effect on cell growth of MCF-7 cells; type: cell-based; conditions: Homo sapiens, MCF7; 1 × 10^-5 M; mean of 16 individual results; read-out: T/C (corrected)
Reported activity at 10 µM by item:

Molecule	activity at 10 µM
CCc1c(-c2ccc(O)cc2)oc2ccc(O)cc12 [Compound 62a]	-0.2%
CCc1c(-c2ccc(O)cc2)sc2ccc(O)cc12 [Compound 104a]	3.2%
Oc1ccc(-c2oc3ccc(O)cc3c2CCCCCCN2CCCCC2)cc1 [Compound 68a]	-9.9%
CCCc1c(-c2ccc(O)cc2)sc2cc(O)ccc12 [Compound 106b]	1.8%
CCc1c(-c2ccc(O)cc2)sc2cc(O)ccc12 [Compound 104b]	4.2%
Oc1ccc(-c2oc3cc(O)ccc3c2CCCCCCN2CCCCC2)cc1 [Compound 68b]	-9.6%
Cc1c(-c2ccc(O)cc2)sc2ccc(O)cc12 [Compound 102a]	14.7%
CCCc1c(-c2ccc(O)cc2)sc2ccc(O)cc12 [Compound 106a]	0.3%
Cc1c(-c2ccc(O)cc2)sc2cc(O)ccc12 [Compound 102b]	10.9%
Oc1ccc(-c2sc3cc(O)ccc3c2CCCCCCN2CCCCC2)cc1 [Compound 119b]	-13.5%

###

system: human MCF-7 mamma carcinoma cells; test: Effect on cell growth of MCF-7 cells; assay type: cell-based; details: Homo sapiens, MCF7; 1 × 10^-6 M; mean of 16 individual results; read-out: T/C (corrected)
Endpoint: activity at 1 µM (%)

Compound	Endpoint	Unit name	Reported measurement
Oc1ccc(-c2oc3ccc(O)cc3c2CCCCCCN2CCCCC2)cc1 [Compound 68a]	activity at 1 µM	%	51.6
Cc1c(-c2ccc(O)cc2)sc2ccc(O)cc12 [Compound 102a]	activity at 1 µM	%	87.4
CCc1c(-c2ccc(O)cc2)sc2cc(O)ccc12 [Compound 104b]	activity at 1 µM	%	91.9
CC/C(=C(\c1ccccc1)c1ccc(OCCN(C)C)cc1)c1ccccc1 [Tam, Tamoxifen, reference compound]	activity at 1 µM	%	59.1
CCc1c(-c2ccc(O)cc2)sc2ccc(O)cc12 [Compound 104a]	activity at 1 µM	%	59.1
